Target: KRAS G12C and cRAF (Ras-binding domain) interaction (Homo sapiens (Human), UniProt P01116, C118S/C51S/C80L/G12C)
Sequence (P01116 other isoform, or with tags, fused parts or gaps G12C/C51S/C80L/C118S): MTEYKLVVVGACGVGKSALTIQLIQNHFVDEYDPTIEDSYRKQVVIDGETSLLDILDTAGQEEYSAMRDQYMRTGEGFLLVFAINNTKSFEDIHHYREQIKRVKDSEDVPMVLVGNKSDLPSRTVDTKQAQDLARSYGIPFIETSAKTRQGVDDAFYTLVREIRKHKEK
Assay: Inhibition of KRAS G12C and cRAF binding (AlphaScreen)
Conditions: additional exemplary compounds; KRAS G12C and cRAF binding; read-out: RAF1 RBD IC50
pIC50: −log10 of the molar value.
pIC50 overview

{"molecule": "C=CC(=O)N1C[C@@H](N(C)c2nc(OC[C@@]34CCCN3C[C@H](F)C4)nc3c2CCN(c2cccc4cccc(Cl)c24)C3)C[C@@H]1CC#N", "pIC50": "< 6.30"}
{"molecule": "Cc1nccc(/C=C/C(=O)N2C[C@@H](F)[C@H](N(C)c3nc(OC[C@@]45CCCN4C[C@H](F)C5)nc4c(F)c(-c5cccc6cccc(Cl)c56)ncc34)C2)n1", "pIC50": "< 6.30"}
{"molecule": "C=CC(=O)N1CC[C@@H](O)[C@H](N(C)c2nc(OC[C@@]34CCCN3C[C@H](F)C4)nc3c(F)c(-c4cccc5cccc(Cl)c45)ncc23)C1", "pIC50": "< 6.30"}
{"molecule": "Cc1noc(/C=C/C(=O)NCCN(C)c2nc(OCC34CCCN3CCC4)nc3c2CCN(c2cccc4cccc(Cl)c24)C3)n1", "pIC50": "6.30 to 7.00"}
{"molecule": "CN(c1nc(OCC23CCCN2CCC3)nc2c(F)c(-c3cccc4cccc(Cl)c34)ncc12)[C@@H]1CCN(C(=O)/C=C/c2ncccn2)C1", "pIC50": "< 6.30"}
{"molecule": "C=CC(=O)N1CC(CN(C)c2nc(OC[C@@]34CCCN3C[C@H](F)C4)nc3c2CCN(c2cccc4cccc(Cl)c24)C3)C1", "pIC50": "6.30 to 7.00"}
{"molecule": "O=C(/C=C/CN1CCOCC1)N1CC2CC(C1)N2c1nc(OC[C@@]23CCCN2C[C@H](F)C3)nc2c(F)c(-c3cccc4cccc(Cl)c34)ncc12", "pIC50": "< 6.30"}
{"molecule": "C#Cc1c(F)ccc2cccc(-c3ncc4c(N(C)[C@@H]5CCN(C(=O)/C=C/c6cccnc6)C5)nc(OC[C@@]56CCCN5C[C@H](F)C6)nc4c3F)c12", "pIC50": "< 6.30"}
{"molecule": "CN(C)C/C=C/C(=O)N1CC[C@@H](N(C)c2nc(OCC34CCCN3CCC4)nc3c(F)c(-c4cccc5ccc(F)c(Cl)c45)ncc23)C1", "pIC50": "7.00 to 8.00"}
{"molecule": "CN(C)C/C=C/C(=O)N1CCC(N(C)c2nc(OC[C@@H]3CCCN3C)nc3c2CCN(c2cccc4cccc(Cl)c24)C3)C1 (some centres unmarked)", "pIC50": "6.30 to 7.00"}
{"molecule": "C=CC(=O)N1C[C@@H](F)[C@@H](N(C)c2nc(OC[C@@]34CCCN3C[C@H](F)C4)nc3c(F)c(-c4cccc5cccc(Cl)c45)ncc23)C1", "pIC50": "< 6.30"}

These data points were gathered from patent US20250019387A1.
